# Test system: MCF7;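 note: secreted proteins added to cultured cells, EdU pulse at the end, nuclei found by Hoechst imaging, EdU status from nuclear versus surrounding ring intensity ratio, PBS as neutral control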
# METHOD_DESCRIPTION: percentage of EdU-negative (G0-arrested) nuclei per well, 72 h; higher = more G0 arrest
# EXPERIMENTAL_SETUP: protein concentration 0.03125 µM; reference: sequence is the full UniProt precursor, the tested protein was the secreted form or ectodomain
// percentage of EdU-negative lookup, one value per entry

BIOSEQUENCE	percentage of EdU-negative / %
MFHVSFRYIFGLPPLILVLLPVASSDCDIEGKDGKQYESVLMVSIDQLLDSMKEIGSNCLNNEFNFFKRHICDANKEGMFLFRAARKLRQFLKMNSTGDFDLHLLKVSEGTTILLNCTGQVKGRKPAALGEAQPTKSLEENKSLKEQKKLNDLCFLKRLLQEIKTCWNKILMGTKEH	26
MTDRQTDTAPSPSYHLLPGRRRTVDAAASRGQGPEPAPGGGVEGVGARGVALKLFVQLLGCSRFGGAVVRAGEAEPSGAARSASSGREEPQPEEGEEEEEKEEERGPQWRLGARKPGSWTGEAAVCADSAPAARAPQALARASGRGGRVARRGAEESGPPHSPSRRGSASRAGPGRASETMNFLLSWVHWSLALLLYLHHAKWSQAAPMAEGGGQNHHEVVKFMDVYQRSYCHPIETLVDIFQEYPDEIEYIFKPSCVPLMRCGGCCNDEGLECVPTEESNITMQIMRIKPHQGQHIGEMSFLQHNKCECRPKKDRARQEKKSVRGKGKGQKRKRKKSRYKSWSVPCGPCSERRKHLFVQDPQTCKCSCKNTDSRCKARQLELNERTCRCDKPRR	27
MAKVFSFILVTTALTMGREISALEDCAQEQMRLRAQVRLLETRVKQQQVKIKQLLQENEVQFLDKGDENTVIDLGSKRQYADCSEIFNDGYKLSGFYKIKPLQSPAEFSVYCDMSDGGGWTVIQRRSDGSENFNRGWKDYENGFGNFVQKHGEYWLGNKNLHFLTTQEDYTLKIDLADFEKNSRYAQYKNFKVGDEKNFYELNIGEYSGTAGDSLAGNFHPEVQWWASHQRMKFSTWDRDHDNYEGNCAEEDQSGWWFNRCHSANLNGVYYSGPYTAKTDNGIVWYTWHGWWYSLKSVVMKIRPNDFIPNVI	24.5
MDSDETGFEHSGLWVSVLAGLLLGACQAHPIPDSSPLLQFGGQVRQRYLYTDDAQQTEAHLEIREDGTVGGAADQSPESLLQLKALKPGVIQILGVKTSRFLCQRPDGALYGSLHFDPEACSFRELLLEDGYNVYQSEAHGLPLHLPGNKSPHRDPAPRGPARFLPLPGLPPALPEPPGILAPQPPDVGSSDPLSMVGPSQGRSPSYAS [Q9NSA1]	25
MGHPPLLPLLLLLHTCVPASWGLRCMQCKTNGDCRVEECALGQDLCRTTIVRLWEEGEELELVEKSCTHSEKTNRTLSYRTGLKITSLTEVVCGLDLCNQGNSGRAVTYSRSRYLECISCGSSDMSCERGRHQSLQCRSPEEQCLDVVTHWIQEGEEGRPKDDRHLRGCGYLPGCPGSNGFHNNDTFHFLKCCNTTKCNEGPILELENLPQNGRQCYSCKGNSTHGCSSEETFLIDCRGPMNQCLVATGTHEPKNQSYMVRGCATASMCQHAHLGDAFSMNHIDVSCCTKSGCNHPDLDVQYRSGAAPQPGPAHLSLTITLLMTARLWGGTLLWT	23.5
MKALLALPLLLLLSTPPCAPQVSGIRGDALERFCLQQPLDCDDIYAQGYQSDGVYLIYPSGPSVPVPVFCDMTTEGGKWTVFQKRFNGSVSFFRGWNDYKLGFGRADGEYWLGLQNMHLLTLKQKYELRVDLEDFENNTAYAKYADFSISPNAVSAEEDGYTLFVAGFEDGGAGDSLSYHSGQKFSTFDRDQDLFVQNCAALSSGAFWFRSCHFANLNGFYLGGSHLSYANGINWAQWKGFYYSLKRTEMKIRRA	22.9
MIPAKDMAKVMIVMLAICFLTKSDGKSVKKRSVSEIQLMHNLGKHLNSMERVEWLRKKLQDVHNFVALGAPLAPRDAGSQRPRKKEDNVLVESHEKSLGEADKADVNVLTKAKSQ	25.8
MALSFSLLMAVLVLSYKSICSLGCDLPQTHSLGNRRALILLAQMGRISHFSCLKDRHDFGFPEEEFDGHQFQKAQAISVLHEMIQQTFNLFSTEDSSAAWEQSLLEKFSTELYQQLNDLEACVIQEVGVEETPLMNEDSILAVRKYFQRITLYLTEKKYSPCAWEVVRAEIMRSLSFSTNLQKRLRRKD	40.1
MWKRWLALALALVAVAWVRAEEELRSKSKICANVFCGAGRECAVTEKGEPTCLCIEQCKPHKRPVCGSNGKTYLNHCELHRDACLTGSKIQVDYDGHCKEKKSVSPSASPVVCYQSNRDELRRRIIQWLEAEIIPDGWFSKGSNYSEILDKYFKNFDNGDSRLDSSEFLKFVEQNETAINITTYPDQENNKLLRGLCVDALIELSDENADWKLSFQEFLKCLNPSFNPPEKKCALEDETYADGAETEVDCNRCVCACGNWVCTAMTCDGKNQKGAQTQTEEEMTRYVQELQKHQETAEKTKRVSTKEI	25.7
MLLLGAVLLLLALPGHDQETTTQGPGVLLPLPKGACTGWMAGIPGHPGHNGAPGRDGRDGTPGEKGEKGDPGLIGPKGDIGETGVPGAEGPRGFPGIQGRKGEPGEGAYVYRSAFSVGLETYVTIPNMPIRFTKIFYNQQNHYDGSTGKFHCNIPGLYYFAYHITVYMKDVKVSLFKKDKAMLFTYDQYQENNVDQASGSVLLHLEVGDQVWLQVYGEGERNGLYADNDNDSTFTGFLLYHDTN	26.2
MFPFYSCWRTGLLLLLLAVAVRESWQTEEKTCDLVGEKGKESEKELALVKRLKPLFNKSFESTVGQGSDTYIYIFRVCREAGNHTSGAGLVQINKSNGKETVVGRLNETHIFNGSNWIMLIYKGGDEYDNHCGKEQRRAVVMISCNRHTLADNFNPVSEERGKVQDCFYLFEMDSSLACSPEISHLSVGSILLVTFASLVAVYVVGGFLYQRLVVGAKGMEQFPHLAFWQDLGNLVADGCDFVCRSKPRNVPAAYRGVGDDQLGEESEERDDHLLPM	25.2

All figures here come from the supplement of paper PMC11316812.
